target: UniProt:P10415; test: TR-FRET binding assay, GST-Bcl-2 with F-Bak peptide probe; details: TR-FRET Binding Affinity, GST-Bcl-2, F-Bak peptide probe
Endpoint Label: pKi
Note on units: pKi is unitless, being -log10 of a concentration expressed in mol/L.

Incoming: Given `CC(C)(C)c1ccc(CN2CCN(c3ccc(C(=O)NS(=O)(=O)c4ccc(OCC5CCOCC5)c([N+](=O)[O-])c4)c(Oc4ccc5[nH]ccc5c4)c3)CC2)c(-c2ccc(Cl)cc2)c1` , state its recorded pKi.
Outgoing: 7.59

Incoming: What pKi value was documented for this compound, `CC1(C)CCC(CN2CCN(c3ccc(C(=O)NS(=O)(=O)c4ccc(NCCCN5CCOCC5)c([N+](=O)[O-])c4)c(Oc4ccc5c(c4)CCCN5)c3)CC2)=C(c2ccc(Cl)cc2)C1` ?
Outgoing: 8.21

Incoming: Requested read-out: pKi. Entry: `CC1(C)CCC(CN2CCN(c3ccc(C(=O)NS(=O)(=O)c4ccc(NCCCN5CCOCC5)c([N+](=O)[O-])c4)c(Oc4ccc5[nH]ncc5c4)c3)CC2)=C(c2ccc(Cl)cc2)C1`
Outgoing: 8.63

Incoming: Which pKi is listed for `CC1(C)CCC(CN2CCN(c3ccc(C(=O)NS(=O)(=O)c4ccc(NCC5(C)COC5)c([N+](=O)[O-])c4)c(Oc4ccc5[nH]ccc5c4)c3)CC2)=C(c2ccc(Cl)cc2)C1` ?
Outgoing: 9.63

Incoming: # query: pKi of entry `CC1(C)CCC(CN2CCN(c3ccc(C(=O)NS(=O)(=O)c4ccc(NCC5CCCCC5)c([N+](=O)[O-])c4)c(Oc4ccc5[nH]ccc5c4)c3)CC2)=C(c2ccc(Cl)cc2)C1`
Outgoing: 8.70

* * *

biological target: GST-Bcl-2 (Homo sapiens, UniProt P10415); assay: TR-FRET binding assay, GST-Bcl-2 with F-Bak peptide probe; conditions: TR-FRET Binding Affinity, GST-Bcl-2, F-Bak peptide probe
Sequence (P10415 whole entry): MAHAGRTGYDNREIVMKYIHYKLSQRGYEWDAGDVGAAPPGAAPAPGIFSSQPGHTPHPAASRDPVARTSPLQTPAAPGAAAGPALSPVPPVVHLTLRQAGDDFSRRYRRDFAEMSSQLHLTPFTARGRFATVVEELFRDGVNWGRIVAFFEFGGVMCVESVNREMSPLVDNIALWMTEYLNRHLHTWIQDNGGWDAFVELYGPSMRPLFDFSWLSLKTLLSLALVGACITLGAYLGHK
pKi: −log10 of the molar value.
Label true when pKi >= 10; otherwise false.

Incoming: Exam item: decide whether the reported pKi for `CN1CCC(Nc2ccc(S(=O)(=O)NC(=O)c3ccc(N4CCN(CC5=C(c6ccc(Cl)cc6)CC(C)(C)CC5)CC4)c(F)c3Oc3ccc4[nH]ccc4c3)cc2[N+](=O)[O-])CC1` is at least 10.
Outgoing: false

Incoming: Does the reported pKi for `O=C(NS(=O)(=O)c1ccc(NCc2cccs2)c([N+](=O)[O-])c1)c1ccc(N2CCN(Cc3ccccc3-c3ccc(Cl)cc3)CC2)cc1Oc1ccccc1` fall at or above the 10 mark?
Outgoing: false

Incoming: pKi >= 10 for O=C(NS(=O)(=O)c1ccc(NCC2CCOCC2)c([N+](=O)[O-])c1)c1ccc(N2CCN(CC3=C(c4ccc(Cl)cc4)CCC(N4CCCC4)C3)CC2)cc1Oc1ccc2[nH]ccc2c1 (stereo not shown) ?
Outgoing: true

Incoming: Reported pKi reaches at least 10 for `CC(C)C[C@@H](CO)Nc1ccc(S(=O)(=O)NC(=O)c2ccc(N3CCN(CC4=C(c5ccc(Cl)cc5)CC(C)(C)CC4)CC3)cc2Oc2ccc3[nH]ccc3c2)cc1[N+](=O)[O-]` ?
Outgoing: false

Incoming: Entry `CC1(C)CCC(c2ccc(Cl)cc2)=C(CN2CCN(c3ccc(C(=O)NS(=O)(=O)c4ccc(NCCCN5CCOCC5)c([N+](=O)[O-])c4)c(Oc4cccc5[nH]ccc45)c3)CC2)C1` : is its pKi no less than 10?
Outgoing: false

Incoming: Given `CC1(C)CCC(CN2CCN(c3ccc(C(=O)NS(=O)(=O)c4ccc(NC5CCN(C6CCOCC6)CC5)c([N+](=O)[O-])c4)c(Oc4ccc5[nH]ccc5c4)c3F)CC2)=C(c2ccc(Cl)cc2)C1` , state whether its pKi is at least 10.
Outgoing: false

* * *

molecular target: GST-Bcl-XL (Homo sapiens, UniProt Q07817); experiment: TR-FRET binding assay, GST-Bcl-XL with F-Bak peptide probe; details: TR-FRET Binding Affinity, GST-Bcl-XL, F-Bak peptide probe
Sequence (Q07817 whole entry): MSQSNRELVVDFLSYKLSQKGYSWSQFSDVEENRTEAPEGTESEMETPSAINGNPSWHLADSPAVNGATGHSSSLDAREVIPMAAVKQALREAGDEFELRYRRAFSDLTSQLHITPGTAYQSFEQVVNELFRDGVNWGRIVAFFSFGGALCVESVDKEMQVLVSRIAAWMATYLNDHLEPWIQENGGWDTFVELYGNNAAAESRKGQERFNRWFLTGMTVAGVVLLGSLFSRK
Endpoint Label: pKi
Formally, pKi is defined as -log10 of the concentration c, with c in mol/L.

Incoming: Find the recorded pKi belonging to O=C(NS(=O)(=O)c1ccc(NCCn2ccnn2)c([N+](=O)[O-])c1)c1ccc(N2CCN(Cc3ccccc3-c3ccc(Cl)cc3)CC2)cc1Oc1ccccc1 [Example 164] and report it.
Outgoing: 6.86

Incoming: Give its pKi value. Item: CN(C)CCOc1cccc(-c2ccc(Cl)cc2)c1CN1CCN(c2ccc(C(=O)NS(=O)(=O)c3ccc(NCC4CCOCC4)c(S(=O)(=O)C(F)(F)F)c3)c(Oc3ccccc3)c2)CC1 [Example 124]
Outgoing: 7.13

Incoming: Entry under review: CN1CCC(Nc2ccc(S(=O)(=O)NC(=O)c3ccc(N4CCN(CC5=C(c6ccc(Cl)cc6)CC(C)(C)CC5)CC4)cc3Oc3ccc4c(c3)CCCN4)cc2[N+](=O)[O-])CC1 [Example 23] . Reported pKi?
Outgoing: 6.78

Incoming: What value of measured pKi is listed for CN(C)CC(=O)N1CCO[C@H](COc2ncc(S(=O)(=O)NC(=O)c3ccc(N4CCN(CC5=C(c6ccc(Cl)cc6)CC(C)(C)CC5)CC4)cc3Oc3cccc4[nH]cnc34)cc2Cl)C1 [Example 423] ?
Outgoing: 8.12

Incoming: Requested field: pKi. Item: CN1CCC(O)(CNc2ccc(S(=O)(=O)NC(=O)c3ccc(N4CCN(CC5=C(c6ccc(Cl)cc6)CC(C)(C)CC5)CC4)cc3Oc3cccc4[nH]ccc34)cc2[N+](=O)[O-])CC1 [Example 186]
Outgoing: 7.95

Incoming: Need pKi, item CN(C)CCCNc1ccc(S(=O)(=O)NC(=O)c2ccc(N3CCN(Cc4ccccc4-c4ccc(Cl)cc4)CC3)cc2Oc2ccc3[nH]ccc3c2)cc1S(=O)(=O)C(F)(F)F [Example 64]
Outgoing: 7.39

Incoming: Endpoint output: pKi of O=C(NS(=O)(=O)c1ccc(NCC2CCOCC2)c([N+](=O)[O-])c1)c1ccc(N2CCN(Cc3cc(CCN4CCCC4)ccc3-c3ccc(Cl)cc3)CC2)cc1Oc1cccc2[nH]ccc12 [Example 25] . Value?
Outgoing: 6.69

* * *

target: GST-Bcl-XL (Homo sapiens); experiment: TR-FRET binding assay, GST-Bcl-XL with F-Bak peptide probe; details: TR-FRET Binding Affinity
Give measured Ki for each item. Keep answers brief.
Provide the reading as a plain figure in nM.

Incoming: Look up Ki with GST-Bcl-XL (Homo sapiens) for this compound: `CC1(C)CCC(CN2CCN(c3ccc(C(=O)NS(=O)(=O)c4ccc(NC[C@H]5CN(C6CC6)CCO5)c([N+](=O)[O-])c4)c(Oc4cccc5[nH]nnc45)c3)CC2)=C(c2ccc(Cl)cc2)C1`
Outgoing: 4.22

Incoming: Given the entry `CC1(C)CCC(CN2CCN(c3ccc(C(=O)NS(=O)(=O)c4ccc(NCC5(F)CCOCC5)c([N+](=O)[O-])c4)c(Oc4cccc5[nH]nnc45)c3)CC2)=C(c2ccc(Cl)cc2)C1` , what Ki was observed with GST-Bcl-XL (Homo sapiens)?
Outgoing: 10.4

Incoming: Lookup: Ki / GST-Bcl-XL (Homo sapiens) / `CC1(C)CCC(CN2CCN(c3ccc(C(=O)NS(=O)(=O)c4ccc(OCC5CCC6(CC5)COC6)c([N+](=O)[O-])c4)c(Oc4cccc5[nH]ncc45)c3)CC2)=C(c2ccc(Cl)cc2)C1`
Outgoing: 2.5

Incoming: Return Ki measured with GST-Bcl-XL (Homo sapiens) given this compound: `CC1(C)CCC(CN2CCN(c3ccc(C(=O)NS(=O)(=O)c4ccc(OCC5(F)CCN(C6COC6)CC5)c(C#N)c4)c(Oc4cccc5[nH]ncc45)c3)CC2)=C(c2ccc(Cl)cc2)C1`
Outgoing: 46

Incoming: Form entry - test system: GST-Bcl-XL (Homo sapiens); read-out: Ki; compound: `CC1(C)CCC(CN2CCN(c3ccc(C(=O)NS(=O)(=O)c4ccc(OCC5CCOCC5)c(Cl)c4)c(Oc4cccc5[nH]cnc45)c3)CC2)=C(c2ccc(Cl)cc2)C1`
Outgoing: 4.82

* * *

Molecular target: GST-Bcl-2 (Homo sapiens, UniProt P10415)
Assay: TR-FRET binding assay, GST-Bcl-2 with F-Bak peptide probe
Settings: TR-FRET Binding Affinity, GST-Bcl-2, F-Bak peptide probe
Description: Tb-anti-GST antibody was purchased from Invitrogen (Catalog No. PV4216). […] The samples were then mixed on a shaker for 1 minute and incubated for an additional 3 hours at room temperature. […] Fluorescence was measured on the ENVISION plate reader (Perkin Elmer) using a 340/35 nm excitation filter and 520/525 (F-Bak peptide) and 495/510 nm (Tb-labeled […] antibody) emission filters. […]
Task for the reader: assign each of the following molecules its reported pKi.
As a rule, pKi stands for the negative log10 of the concentration, concentration in M.

Incoming: # input molecule: `O=C(NS(=O)(=O)c1ccc(NCC2CCOCC2)c([N+](=O)[O-])c1)c1ccc(N2CCN(Cc3cc(CCN4CCCC4)ccc3-c3ccc(Cl)cc3)CC2)cc1Oc1cccc2[nH]ccc12` ; wanted: its pKi
Outgoing: 10.30

Incoming: Quick check: pKi of `CN(C)CCCOc1ccc(-c2ccc(Cl)cc2)c(CN2CCN(c3ccc(C(=O)NS(=O)(=O)c4ccc(NCC5CCOCC5)c([N+](=O)[O-])c4)c(Oc4ccccc4)c3)CC2)c1` ?
Outgoing: 10.44

Incoming: Entry `CN1CCN(CCNc2ccc(S(=O)(=O)NC(=O)c3ccc(N4CCN(CC5=C(c6ccc(Cl)cc6)CC(C)(C)CC5)CC4)cc3Oc3ccc4[nH]ccc4c3)cc2[N+](=O)[O-])CC1` has what pKi?
Outgoing: 10.22

Incoming: Tell me the measured pKi of `CC1(C)CCC(CN2CCN(c3ccc(C(=O)NS(=O)(=O)c4ccc(NC5CCN(C6Cc7ccccc7C6)CC5)c([N+](=O)[O-])c4)c(Oc4ccc5[nH]ccc5c4)c3)CC2)=C(c2ccc(Cl)cc2)C1` , please.
Outgoing: 8.33

Incoming: Name the reported pKi value associated with the molecule `CN1CCC(Nc2ccc(S(=O)(=O)NC(=O)c3ccc(N4CCN(CC5=C(c6ccc(Cl)cc6)CC(C)(C)CC5)CC4)cc3Oc3cccc4[nH]cnc34)cc2[N+](=O)[O-])CC1`
Outgoing: 11.40

Incoming: // lookup pKi for `CC1(C)CCC(CN2CCN(c3ccc(C(=O)NS(=O)(=O)c4ccc(OCC5(F)CCOCC5)c([N+](=O)[O-])c4)c(Oc4cccc5[nH]cnc45)c3)CC2)=C(c2ccc(Cl)cc2)C1`
Outgoing: 11.70

Incoming: // returns reported pKi for input `CN1CCC(Nc2ccc(S(=O)(=O)NC(=O)c3ccc(N4CCN(CC5=C(c6ccc(Cl)cc6)CCCC5)CC4)cc3Oc3cccc4[nH]ccc34)cc2[N+](=O)[O-])CC1`
Outgoing: 9.58

Incoming: For the molecule `CC1(C)CCC(CN2CCN(c3ccc(C(=O)NS(=O)(=O)c4ccc(NC5CCN(S(C)(=O)=O)CC5)c([N+](=O)[O-])c4)c(Oc4ccc5[nH]ccc5c4)c3)CC2)=C(c2ccc(Cl)cc2)C1` , what pKi is on record?
Outgoing: 9.36

Incoming: Reported pKi for `CC1(C)CCC(CN2CCN(c3ccc(C(=O)NS(=O)(=O)c4cnc(OCC5CCOCC5)c(C#N)c4)c(Oc4ccc5[nH]ccc5c4)c3)CC2)=C(c2ccc(Cl)cc2)C1` : what is it?
Outgoing: 10.05

Incoming: Request the reported pKi associated with `CN(C)CC[C@H](Nc1ccc(S(=O)(=O)NC(=O)c2ccc(N3CCN(Cc4ccccc4-c4ccc(Cl)cc4)CC3)cc2Oc2ccccc2)cc1[N+](=O)[O-])c1cccs1`
Outgoing: 8.77
